- System: S. typhimurium/E. coli reverse mutation, colony counts
- TEST SUMMARY: Bacterial reverse mutation test (aka Ames test) summary data;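 note: His-minus Salmonella and trp-minus E. coli WP2 uvrA pKM101 with or without liver S9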
Inconclusive results are not listed. Activity calls are given as the source filed them. The rule behind the calls is not given here.
Labels: TRUE for active, FALSE for inactive

COMPOUND: Nc1ccc(Cl)cc1Cl
CLASS ASSIGNMENT: TRUE
--
COMPOUND: Cl
CLASS ASSIGNMENT: FALSE
--
COMPOUND: Oc1cccc2cc3cccc(O)c3c(O)c12
CLASS ASSIGNMENT: FALSE
--
COMPOUND: Nc1nc2ccccc2[nH]1
CLASS ASSIGNMENT: FALSE
--
COMPOUND: OCC=CCO
CLASS ASSIGNMENT: TRUE
--
COMPOUND: CCC=CC#N
CLASS ASSIGNMENT: FALSE
--
COMPOUND: CC(C)CON=O
CLASS ASSIGNMENT: TRUE
--
COMPOUND: CN(C)c1ccc(C(=N)c2ccc(N(C)C)cc2)cc1
CLASS ASSIGNMENT: TRUE
--
COMPOUND: Cc1cccc(Br)c1
CLASS ASSIGNMENT: FALSE
--
COMPOUND: C1COCCO1
CLASS ASSIGNMENT: FALSE
--
COMPOUND: CCN(C(=O)N(CC)c1ccccc1)c1ccccc1
CLASS ASSIGNMENT: FALSE
--
COMPOUND: CCc1cccc(C)c1N
CLASS ASSIGNMENT: FALSE
--
COMPOUND: O=[N+]([O-])c1ccc(Cl)cc1
CLASS ASSIGNMENT: TRUE
--
COMPOUND: C(=NC1CCCCC1)=NC1CCCCC1
CLASS ASSIGNMENT: FALSE
--
COMPOUND: CC(O)c1ccccc1 (configuration not stated)
CLASS ASSIGNMENT: FALSE
--
COMPOUND: Clc1cccc(C(Cl)(Cl)Cl)n1
CLASS ASSIGNMENT: TRUE
--
COMPOUND: C[Si](C)(C)O[Si](C)(O[Si](C)(C)C)O[Si](C)(C)C
CLASS ASSIGNMENT: FALSE
